Biological target: SIK2 (QIK) (SEQ ID NO: 11) (Homo sapiens, UniProt Q9H0K1)
Sequence (Q9H0K1 whole entry): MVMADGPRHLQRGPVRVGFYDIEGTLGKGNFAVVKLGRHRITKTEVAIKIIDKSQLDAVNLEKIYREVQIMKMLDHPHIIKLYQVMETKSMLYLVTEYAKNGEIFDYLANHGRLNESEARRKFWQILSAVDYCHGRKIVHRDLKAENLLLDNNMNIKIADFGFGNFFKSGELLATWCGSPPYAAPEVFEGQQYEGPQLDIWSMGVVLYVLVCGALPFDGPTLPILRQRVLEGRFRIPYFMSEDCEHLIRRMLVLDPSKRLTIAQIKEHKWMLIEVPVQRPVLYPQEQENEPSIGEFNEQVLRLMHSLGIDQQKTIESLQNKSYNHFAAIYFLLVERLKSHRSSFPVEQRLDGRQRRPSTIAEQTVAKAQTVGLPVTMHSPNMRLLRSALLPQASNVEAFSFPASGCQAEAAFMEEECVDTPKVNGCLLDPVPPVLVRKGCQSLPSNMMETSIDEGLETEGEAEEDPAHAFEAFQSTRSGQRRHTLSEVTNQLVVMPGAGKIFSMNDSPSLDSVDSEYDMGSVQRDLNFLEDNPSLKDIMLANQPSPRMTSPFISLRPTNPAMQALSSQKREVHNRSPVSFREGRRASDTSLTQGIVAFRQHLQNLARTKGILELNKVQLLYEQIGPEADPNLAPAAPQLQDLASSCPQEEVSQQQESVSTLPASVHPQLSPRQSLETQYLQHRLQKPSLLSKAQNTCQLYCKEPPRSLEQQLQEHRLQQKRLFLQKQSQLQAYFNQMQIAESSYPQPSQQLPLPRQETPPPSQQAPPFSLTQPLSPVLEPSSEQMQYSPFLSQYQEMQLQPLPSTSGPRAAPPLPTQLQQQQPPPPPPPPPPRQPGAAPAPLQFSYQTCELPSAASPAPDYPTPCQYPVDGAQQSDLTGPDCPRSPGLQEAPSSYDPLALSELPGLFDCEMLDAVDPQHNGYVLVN
Assay: SIK2 kinase assay (radiometric, 10 μM ATP)
Type: biochemical
Conditions: read-out: SIK2 (QIK) (SEQ ID NO: 11) kinase inhibition result
pIC50: −log10 of the molar value.
Please go through the items and note down their pIC50.

Can you look up pIC50 on SIK2 (QIK) (SEQ ID NO: 11) (Homo sapiens, UniProt Q9H0K1) for CN1CCN(S(=O)(=O)n2cc(-c3cnc4[nH]cc(-c5ccc6c(c5)OC(F)(F)O6)c4c3)cn2)CC1 ? > 7.00

Can you look up pIC50 on SIK2 (QIK) (SEQ ID NO: 11) (Homo sapiens, UniProt Q9H0K1) for FC1(F)Oc2ccc(-c3c[nH]c4ncc(-c5csc(N6CCOCC6)n5)cc34)cc2O1 ? > 7.00

Can you look up pIC50 on SIK2 (QIK) (SEQ ID NO: 11) (Homo sapiens, UniProt Q9H0K1) for Fc1ccc(-c2n[nH]c3nccc(-c4ccsc4)c23)c(F)c1 ? < 7.00

Can you look up pIC50 on SIK2 (QIK) (SEQ ID NO: 11) (Homo sapiens, UniProt Q9H0K1) for OCCN1CCN(c2cnn(-c3cnc4[nH]cc(-c5ccc6c(c5)OC(F)(F)O6)c4c3)c2)CC1 ? > 7.00

Can you look up pIC50 on SIK2 (QIK) (SEQ ID NO: 11) (Homo sapiens, UniProt Q9H0K1) for FC1(F)Oc2ccc(-c3c[nH]c4ncc(-c5ccc(CN6CCCCC6)s5)cc34)cc2O1 ? > 7.00

Can you look up pIC50 on SIK2 (QIK) (SEQ ID NO: 11) (Homo sapiens, UniProt Q9H0K1) for COc1ccccc1-c1c[nH]c2nccc(-c3ccsc3)c12 ? < 7.00

Can you look up pIC50 on SIK2 (QIK) (SEQ ID NO: 11) (Homo sapiens, UniProt Q9H0K1) for COc1c(F)cccc1-c1c[nH]c2ncc(-c3ccc(CN4CCOCC4)s3)cc12 ? > 7.00

Can you look up pIC50 on SIK2 (QIK) (SEQ ID NO: 11) (Homo sapiens, UniProt Q9H0K1) for CN(C)S(=O)(=O)c1cccc(-c2cnc3[nH]cc(-c4cccc(F)c4Cl)c3c2)c1 ? > 7.00

Can you look up pIC50 on SIK2 (QIK) (SEQ ID NO: 11) (Homo sapiens, UniProt Q9H0K1) for COc1c(F)cc(F)cc1-c1c[nH]c2ncc(-c3cccc(S(=O)(=O)N(C)C(C)(C)C)c3)cc12 ? > 7.00

Can you look up pIC50 on SIK2 (QIK) (SEQ ID NO: 11) (Homo sapiens, UniProt Q9H0K1) for COc1c(F)cccc1-c1c[nH]c2ncc(-c3ccc(C)o3)cc12 ? > 7.00

Can you look up pIC50 on SIK2 (QIK) (SEQ ID NO: 11) (Homo sapiens, UniProt Q9H0K1) for CS(=O)(=O)N1CCC(n2cc(-c3cnc4[nH]cc(-c5ccc6c(c5)OC(F)(F)O6)c4c3)cn2)CC1 ? < 6.00

Can you look up pIC50 on SIK2 (QIK) (SEQ ID NO: 11) (Homo sapiens, UniProt Q9H0K1) for CCS(=O)(=O)N1CCC(n2cc(-c3cnc4[nH]cc(-c5cc(F)cc(F)c5OC)c4c3)cn2)CC1 ? < 7.00

Can you look up pIC50 on SIK2 (QIK) (SEQ ID NO: 11) (Homo sapiens, UniProt Q9H0K1) for CN1CCC(n2cc(-c3cnc4[nH]cc(-c5ccc6c(c5)OC(F)(F)O6)c4c3)cn2)CC1 ? < 7.00

Can you look up pIC50 on SIK2 (QIK) (SEQ ID NO: 11) (Homo sapiens, UniProt Q9H0K1) for Fc1cccc(-c2c[nH]c3nccc(-c4ccsc4)c23)c1Cl ? < 7.00

Can you look up pIC50 on SIK2 (QIK) (SEQ ID NO: 11) (Homo sapiens, UniProt Q9H0K1) for COc1c(F)cccc1-c1c[nH]c2ncc(-c3cnc(N4CCOCC4)s3)cc12 ? > 7.00

Can you look up pIC50 on SIK2 (QIK) (SEQ ID NO: 11) (Homo sapiens, UniProt Q9H0K1) for CCOc1ccccc1-c1c[nH]c2nccc(-c3ccsc3)c12 ? < 7.00

Can you look up pIC50 on SIK2 (QIK) (SEQ ID NO: 11) (Homo sapiens, UniProt Q9H0K1) for CCN(CC)S(=O)(=O)c1ccccc1-c1c[nH]c2nccc(-c3ccsc3)c12 ? < 6.00

* * *

Assay: Rat bioavailability and pharmacokinetics
Type: in vivo, male Sprague Dawley rats
Settings: male, Sprague Dawley, plasma; IV 5 mg/kg, rat; read-out: Vss
PROPERTY_LABEL: Vd (L/kg)
The answer is to be given in L/kg; state only the numeric part.

So what's the measured Vd for this one? Fc1cccc(-c2c[nH]c3ncc(-c4ccsc4)cc23)c1Cl [Example 114] 1.61

* * *

Assay: Rat bioavailability and pharmacokinetics
Format: in vivo, male Sprague Dawley rats
Conditions: male, Sprague Dawley, plasma; PO 20 mg/kg, rat
PROPERTY_LABEL: AUC(0-inf) (ng·h/mL)
The answer is to be given in ng·h/mL; state only the numeric part.

So what's the measured AUC(0-inf) for this one? Fc1cccc(-c2c[nH]c3ncc(-c4ccsc4)cc23)c1Cl 1600

* * *

Please go through the items and note down their pIC50.
pIC50: −log10 of the molar value.

Can you look up pIC50 on SIK3 (QSK) (SEQ ID NO: 24) (Homo sapiens, UniProt Q9Y2K2) for COc1c(F)cc(F)cc1-c1c[nH]c2ncc(-c3cnn(S(=O)(=O)N4CCN(C)CC4)c3)cc12 ? > 7.00

Can you look up pIC50 on SIK3 (QSK) (SEQ ID NO: 24) (Homo sapiens, UniProt Q9Y2K2) for COc1ccccc1-c1c[nH]c2ncc(-c3ccc(C)o3)cc12 ? < 6.00

Can you look up pIC50 on SIK3 (QSK) (SEQ ID NO: 24) (Homo sapiens, UniProt Q9Y2K2) for FC1(F)Oc2ccc(-c3c[nH]c4ncc(-c5ccc(CN6CCCCC6)s5)cc34)cc2O1 ? > 7.00

Can you look up pIC50 on SIK3 (QSK) (SEQ ID NO: 24) (Homo sapiens, UniProt Q9Y2K2) for O=C(c1c(F)cccc1F)c1c[nH]c2ncc(-c3cnc(N4CCOCC4)s3)cc12 ? > 7.00

* * *

The following are reported IC50 results, target or system SIK1 (SEQ ID NO: 10) (Homo sapiens, UniProt P57059).

So what's the measured IC50 for this one? COc1c(F)cccc1-c1c[nH]c2nccc(-c3ccsc3)c12 > 100 nM

So what's the measured IC50 for this one? FC1(F)Oc2ccc(-c3c[nH]c4ncc(-c5csc(N6CCOCC6)n5)cc34)cc2O1 > 100 nM

So what's the measured IC50 for this one? FC1(F)Oc2ccc(-c3c[nH]c4ncc(-c5ccc(CN6CCCC6)s5)cc34)cc2O1 > 1000 nM

So what's the measured IC50 for this one? O=S(=O)(c1ccc(-c2c[nH]c3nccc(-c4ccsc4)c23)cc1)N1CCCC1 > 1000 nM

So what's the measured IC50 for this one? COc1c(F)cc(F)cc1-c1c[nH]c2ncc(-c3ccc(CN4CCCC4)s3)cc12 > 1000 nM

So what's the measured IC50 for this one? FC1(F)CN(c2c[nH]c3ncc(-c4ccsc4)cc23)C1 > 100 nM

So what's the measured IC50 for this one? Cc1ccc(-c2cnc3[nH]cc(-c4cccc(F)c4O)c3c2)o1 > 100 nM

So what's the measured IC50 for this one? FC1(F)Oc2ccc(-c3c[nH]c4ncc(-c5ccc(CN6CCOCC6)s5)cc34)cc2O1 > 100 nM

* * *

Target: SIK2 (QIK) (SEQ ID NO: 11) (Homo sapiens)
Assay: SIK2 kinase assay (radiometric, 10 μM ATP)
Type: biochemical
Conditions: compounds purchased from vendor library, read-out: SIK2 IC50
PROPERTY_LABEL: IC50

So what's the measured IC50 for this one? FC(F)(F)c1cccc(-c2ccnc3[nH]nc(-c4ccc5c(c4)OCO5)c23)c1 > 1 µM

So what's the measured IC50 for this one? CNC(=O)c1cccc(-c2ccnc3[nH]nc(-c4cccc(C(F)(F)F)c4)c23)c1 > 1 µM

So what's the measured IC50 for this one? COc1cc(-c2ccnc3[nH]nc(-c4cccc(NS(C)(=O)=O)c4)c23)cc(OC)c1OC > 1 µM

So what's the measured IC50 for this one? COc1ccccc1-c1n[nH]c2nccc(-c3ccsc3)c12 < 0.1 µM

So what's the measured IC50 for this one? COc1cc(-c2n[nH]c3nccc(-c4cccc(N(C)C)c4)c23)cc(OC)c1OC > 1 µM

So what's the measured IC50 for this one? COc1cc(-c2n[nH]c3nccc(-c4cccc(C(=O)NCCN(C)C)c4)c23)cc(OC)c1OC > 1 µM

So what's the measured IC50 for this one? COc1cc(-c2n[nH]c3nccc(-c4ccc(C(C)C)cc4)c23)cc(OC)c1OC > 0.1 µM

So what's the measured IC50 for this one? COc1ccccc1-c1n[nH]c2nccc(-c3ccoc3)c12 < 0.1 µM

So what's the measured IC50 for this one? COc1ccc(-c2ccnc3[nH]nc(-c4cccnc4)c23)cc1OC > 0.1 µM
